Assay: EASI phase II study: pharmacokinetics
Type: in vivo
Settings: human, in vivo, iv, 90 mg/kg, Phase II trial, 90 mg/kg/hour i.v. infusion, read-out: Venous Cmax, range
Peptide text beside a SMILES is read from it.
Attribute Measured: Cmax

[Q] What measured Cmax goes with CC(C)[C@H](NC(=O)CNC(=O)[C@H](CCC(N)=O)NC(=O)[C@H](C)N)C(=O)O [EA-230, AQGV] (H-AQGV-OH) ?
[A] 19.6 to 113 µg/mL

###

Assay: EASI phase II study: pharmacokinetics
Format: in vivo
Conditions: human, in vivo, iv, 90 mg/kg, Phase II trial, 90 mg/kg/hour i.v. infusion, read-out: Mean venous Cmax
Peptide text beside a SMILES is read from it.
Attribute Measured: Cmax (µg/mL)
Give the number; µg/mL is assumed, so skip it.

[Q] Which value of Cmax has been reported for CC(C)[C@H](NC(=O)CNC(=O)[C@H](CCC(N)=O)NC(=O)[C@H](C)N)C(=O)O [EA-230, AQGV] (H-AQGV-OH) in the records?
[A] 68.4

###

Experiment: EASI phase II study: pharmacokinetics
Format: in vivo
Conditions: human, in vivo, iv, 90 mg/kg, Phase II trial, 90 mg/kg/hour i.v. infusion, read-out: Arterial Cmax, range
Peptide text beside a SMILES is read from it.
Attribute Measured: Cmax

[Q] What Cmax value was documented for this molecule, CC(C)[C@H](NC(=O)CNC(=O)[C@H](CCC(N)=O)NC(=O)[C@H](C)N)C(=O)O [EA-230, AQGV] (H-AQGV-OH) ?
[A] 12500 to 57500 ng/mL

###

Test: EASI phase II study: pharmacokinetics
Format: in vivo
Details: human, in vivo, iv, 90 mg/kg, Phase II trial, 90 mg/kg/hour i.v. infusion, read-out: Mean arterial Cmax
Peptide text beside a SMILES is read from it.
Attribute Measured: Cmax
Remember to follow the number with its unit.

[Q] Entry under review: CC(C)[C@H](NC(=O)CNC(=O)[C@H](CCC(N)=O)NC(=O)[C@H](C)N)C(=O)O [EA-230, AQGV] (H-AQGV-OH) . Reported Cmax?
[A] 30500 ng/mL
